Data origin, for the record: the MegaScale stability set (Tsuboyama et al. 2023)

B1: HEEH_KT_rd6_0790 (parent)
chain: SEEEEEEWRRAKERGEEIIILGILWKPNDEEAERRIKEALRRV

- Variants of: B1
- assay notes: folding stability dG (cDNA display proteolysis); higher = more stable
- setup conditions: PBS, room temperature
# folding stability dG values compiled below
Only the number, expressed in kcal/mol, is required.

| change | folding stability dG, kcal/mol |
| --- | --- |
| A39I | 1.81 |

Which folding stability dG is reported for this variant? K37Q
2.04

Which folding stability dG is reported for this variant? L21V
1.34

Which folding stability dG is reported for this variant? E16G
1.61

Which folding stability dG is reported for this variant? E5T
1.79

Which folding stability dG is reported for this variant? G15H
1.53

Which folding stability dG is reported for this variant? R14N
1.97

Which folding stability dG is reported for this variant? R10T
1.55

Which folding stability dG is reported for this variant? E33V
1.52

Which folding stability dG is reported for this variant? K26D
1.26

Which folding stability dG is reported for this variant? I18D
0.812
